- System: HepG2
- assay_name: cytotoxicity call (relative viability < 0.9)
- test_parameters: 10 µM
Among all 39,000 compounds or so, about 3,300 (8.5%) were called active. The list comes from a sample in which actives are over-represented; it also holds close analogues and randomly drawn compounds.
Possible outcomes: 1 = active, -1 = inactive

>  <molecule>
COc1ccc(NC(=O)Nc2cccc3c2O[C@H](CN(C)Cc2ccc(Oc4ccccc4)cc2)[C@@H](C)CN([C@@H](C)CO)C3=O)cc1

>  <class_label>
-1

$$$$
>  <molecule>
Cc1ccc(S(=O)(=O)Nc2ccc3c(c2)C(=O)N([C@@H](C)CO)C[C@H](C)[C@@H](CN(C)C(=O)Nc2ccccc2)OCCCC[C@H](C)O3)cc1

>  <class_label>
1

$$$$
>  <molecule>
COc1ccc(NC(=O)Nc2cccc3c2O[C@@H](CN(C)Cc2ccc(Oc4ccccc4)cc2)[C@H](C)CN([C@H](C)CO)C3=O)cc1

>  <class_label>
-1

$$$$
>  <molecule>
C[C@@H]1CN([C@@H](C)CO)C(=O)c2cccc(NC(=O)Nc3ccc(F)cc3)c2O[C@H]1CN(C)Cc1ccc(Oc2ccccc2)cc1

>  <class_label>
-1

$$$$
>  <molecule>
Cc1ccc(S(=O)(=O)Nc2ccc3c(c2)C(=O)N([C@H](C)CO)C[C@@H](C)[C@H](CN(C)C(=O)Nc2ccc(F)cc2)OCCCC[C@@H](C)O3)cc1

>  <class_label>
1

$$$$
>  <molecule>
Cc1cc(C(=O)Nc2cccc3c2O[C@@H](CN(C)Cc2ccc(Oc4ccccc4)cc2)[C@H](C)CN([C@@H](C)CO)C3=O)n(C)n1

>  <class_label>
-1

$$$$
>  <molecule>
Cc1cc(C(=O)Nc2cccc3c2O[C@@H](CN(C)Cc2ccc(Oc4ccccc4)cc2)[C@@H](C)CN([C@@H](C)CO)C3=O)n(C)n1

>  <class_label>
-1

$$$$

---

- System: HepG2
- assay_name: cytotoxicity call (relative viability < 0.9)
- test_parameters: 10 µM
Hit rate of the full screen: of about 39,000 compounds, about 3,300 (8.5%) were called active. What follows is part of a selection rich in actives, with near analogues and random picks from the rest.
Labels: True for active, False for inactive

>  <molecule>
O=C(CSc1nnc(-c2ccccc2)n1C1CCCCC1)Nc1ccc(S(=O)(=O)Nc2ccccn2)cc1

>  <class_label>
False

$$$$
>  <molecule>
C[C@@H]1CCCCO[C@H](CN(C)C(=O)Nc2ccc3c(c2)OCO3)[C@H](C)CN([C@@H](C)CO)C(=O)c2cc(NS(=O)(=O)c3ccc(Cl)cc3)ccc2O1

>  <class_label>
False

$$$$
>  <molecule>
COc1ccc(S(=O)(=O)Nc2ccc3c(c2)C(=O)N([C@@H](C)CO)C[C@H](C)[C@@H](CN(C)C(=O)Nc2ccc4c(c2)OCO4)OCCCC[C@@H](C)O3)cc1

>  <class_label>
False

$$$$
>  <molecule>
CNC(=O)CN(C#N)c1nc(N(C)C)nc(N(C)C)n1

>  <class_label>
False

$$$$
>  <molecule>
C[C@@H]1CN([C@H](C)CO)C(=O)c2cc(NS(=O)(=O)c3ccc(Cl)cc3)ccc2O[C@@H](C)CCCCO[C@H]1CN(C)C(=O)Nc1ccc2c(c1)OCO2

>  <class_label>
False

$$$$
>  <molecule>
CCN(CC)CCOc1ccc2c(c1)C(=O)c1cc(OCCN(CC)CC)ccc1-2

>  <class_label>
True

$$$$
>  <molecule>
CO[C@@H]1CN(C)C(=O)c2ccc(NC(=O)Nc3ccccc3)cc2OC[C@H](C)N(C(=O)CN(C)C)C[C@@H]1C

>  <class_label>
False

$$$$

---

- System: HepG2
- assay_name: cytotoxicity call (relative viability < 0.9)
- test_parameters: 10 µM
The whole screen tested about 39,000 compounds, of which about 3,300 (8.5%) were called active. This excerpt belongs to a sample that is enriched for actives.
Outcome codes: active, inactive

>  <molecule>
C[C@@H]1CN([C@H](C)CO)C(=O)c2cc(NC(=O)Nc3ccc(C(F)(F)F)cc3)ccc2O[C@@H]1CN(C)Cc1ccccc1

>  <class_label>
active

$$$$
>  <molecule>
C[C@H]1CN([C@@H](C)CO)C(=O)c2cc(NC(=O)Nc3ccc(C(F)(F)F)cc3)ccc2O[C@H]1CN(C)Cc1ccccc1

>  <class_label>
active

$$$$
>  <molecule>
C[C@@H]1CN([C@@H](C)CO)C(=O)c2cc(NC(=O)Nc3ccc(C(F)(F)F)cc3)ccc2O[C@H]1CN(C)Cc1ccccc1

>  <class_label>
inactive

$$$$
>  <molecule>
C[C@@H]1CN([C@@H](C)CO)C(=O)c2cc(NC(=O)Nc3ccc(C(F)(F)F)cc3)ccc2O[C@@H]1CN(C)Cc1ccccc1

>  <class_label>
active

$$$$

---

- System: HepG2
- assay_name: cytotoxicity call (relative viability < 0.9)
- test_parameters: 10 µM
In all, about 39,000 compounds went through this assay and about 3,300 (8.5%) were called active. The full list was thinned out, with actives kept by preference.
Classes used: active, inactive

>  <molecule>
C[C@@H]1CCCCO[C@@H](CN(C)Cc2ccc3c(c2)OCO3)[C@@H](C)CN([C@@H](C)CO)C(=O)c2cc(NS(=O)(=O)c3ccc(F)cc3)ccc2O1

>  <class_label>
active

$$$$
>  <molecule>
Cc1ccc(S(=O)(=O)N(C)C[C@@H]2OCCCC[C@H](C)Oc3ccc(NS(=O)(=O)c4ccc(F)cc4)cc3C(=O)N([C@H](C)CO)C[C@H]2C)cc1

>  <class_label>
inactive

$$$$
>  <molecule>
C[C@H]1CN([C@@H](C)CO)C(=O)c2ccccc2-c2ccccc2CO[C@@H]1CN(C)C(=O)Nc1ccc(-c2ccccc2)cc1

>  <class_label>
inactive

$$$$
>  <molecule>
C[C@@H]1CCCCO[C@H](CN(C)S(=O)(=O)c2ccccc2)[C@@H](C)CN([C@H](C)CO)C(=O)c2cc(NC(=O)c3ccccc3)ccc2O1

>  <class_label>
inactive

$$$$
>  <molecule>
C[C@@H]1CN([C@@H](C)CO)C(=O)c2cc(NS(=O)(=O)c3ccc(F)cc3)ccc2O[C@@H](C)CCCCO[C@H]1CN(C)Cc1ccc2c(c1)OCO2

>  <class_label>
inactive

$$$$
>  <molecule>
C[C@@H]1CN([C@H](C)CO)C(=O)c2c(c3ccccc3n2C)-c2ccccc2CO[C@@H]1CN(C)C(=O)Nc1ccc(-c2ccccc2)cc1

>  <class_label>
inactive

$$$$
>  <molecule>
Cc1ccc(S(=O)(=O)N(C)C[C@@H]2OCCCC[C@H](C)Oc3ccc(NC(=O)c4ccccc4)cc3C(=O)N([C@H](C)CO)C[C@H]2C)cc1

>  <class_label>
active

$$$$
>  <molecule>
C[C@H]1CN([C@@H](C)CO)C(=O)c2cc(NC(=O)CCN3CCOCC3)ccc2O[C@@H]1CN(C)S(=O)(=O)c1cn(C)cn1

>  <class_label>
inactive

$$$$
>  <molecule>
C[C@H](CO)N1C[C@H](C)[C@H](CN(C)Cc2ccc(Oc3ccccc3)cc2)Oc2c(NC(=O)C3CCCCC3)cccc2C1=O

>  <class_label>
inactive

$$$$
>  <molecule>
C[C@@H]1CN([C@H](C)CO)C(=O)c2c(c3ccccc3n2C)-c2ccccc2CO[C@H]1CN(C)C(=O)Nc1ccc(-c2ccccc2)cc1

>  <class_label>
active

$$$$
>  <molecule>
Cc1noc(C)c1S(=O)(=O)Nc1ccc2c(c1)CC(=O)N([C@H](C)CO)C[C@@H](C)[C@H](CN(C)S(=O)(=O)c1ccc(F)cc1)O2

>  <class_label>
inactive

$$$$
>  <molecule>
C[C@H](CO)N1C[C@H](C)[C@@H](CN(C)C(=O)Nc2ccc(-c3ccccc3)cc2)OCc2ccccc2-c2c(n(C)c3ccccc23)C1=O

>  <class_label>
inactive

$$$$
>  <molecule>
C[C@@H]1CN([C@H](C)CO)C(=O)c2cc(NS(=O)(=O)c3ccc(F)cc3)ccc2O[C@@H](C)CCCCO[C@@H]1CN(C)Cc1ccc2c(c1)OCO2

>  <class_label>
inactive

$$$$

---

- Test system: HepG2
- assay_name: cytotoxicity call (relative viability < 0.9)
- test_parameters: 10 µM
The campaign covered roughly 39,000 compounds. About 3,300 (8.5%) were called active. What follows is part of a selection rich in actives, with near analogues and random picks from the rest.
Classes used: true (1) for active, false (0) for inactive

>  <molecule>
CN(CCO)c1ccccn1

>  <class_label>
false (0)

$$$$
>  <molecule>
COc1ccc(S(=O)(=O)Nc2ccc3c(c2)CC(=O)N([C@H](C)CO)C[C@@H](C)[C@H](CN(C)C)O3)cc1

>  <class_label>
false (0)

$$$$
>  <molecule>
Cc1noc(C)c1S(=O)(=O)Nc1ccc2c(c1)CC(=O)N([C@@H](C)CO)C[C@H](C)[C@H](CN(C)S(=O)(=O)c1ccc(F)cc1)O2

>  <class_label>
false (0)

$$$$
>  <molecule>
C[C@H](CO)N1C[C@H](C)[C@H](CN(C)Cc2ccc(C(F)(F)F)cc2)Oc2ccc(NC(=O)Cc3cn(C)c4ccccc34)cc2C1=O

>  <class_label>
false (0)

$$$$
>  <molecule>
C[C@@H]1CCCCO[C@H](CN(C)S(=O)(=O)c2ccccc2)[C@H](C)CN([C@@H](C)CO)C(=O)c2cc(NS(=O)(=O)c3ccc(Cl)cc3)ccc2O1

>  <class_label>
false (0)

$$$$
>  <molecule>
C[C@@H]1CCCCO[C@@H](CN(C)Cc2ccc(C(=O)O)cc2)[C@H](C)CN([C@H](C)CO)C(=O)c2cc(NC(=O)c3ccccc3)ccc2O1

>  <class_label>
false (0)

$$$$
>  <molecule>
COc1ccc2c3c([nH]c2c1)[C@H](CO)N(C[C@]13CCN(CC1)C(=O)c1ccccc1F)C(=O)Nc1ccc(cc1)F

>  <class_label>
false (0)

$$$$
>  <molecule>
C[C@H]1CCCCO[C@H](CN(C)C(=O)Nc2ccc(F)cc2)[C@@H](C)CN([C@@H](C)CO)C(=O)c2cc(NC(=O)c3ccncc3)ccc2O1

>  <class_label>
false (0)

$$$$
>  <molecule>
C[C@H]1CN([C@@H](C)CO)C(=O)c2cc(NC(=O)Nc3ccc(C(F)(F)F)cc3)ccc2O[C@@H]1CN(C)C(=O)Nc1ccc2c(c1)OCO2

>  <class_label>
true (1)

$$$$
>  <molecule>
C[C@@H]1CN([C@@H](C)CO)C(=O)c2cc(NS(=O)(=O)c3ccccc3)ccc2O[C@@H](C)CCCCO[C@@H]1CN(C)S(=O)(=O)c1ccc(Cl)cc1

>  <class_label>
false (0)

$$$$
>  <molecule>
COc1ccc(cc1)CN1CC[C@]2(CC1)CN([C@@H](CO)c1[nH]c3cc(ccc3c12)OC)C(=O)Nc1ccc(cc1)F

>  <class_label>
true (1)

$$$$
>  <molecule>
COc1cccc(S(=O)(=O)N2C[C@H](O)COC[C@@H]3O[C@H](CC(=O)N4CCN(c5ccccc5)CC4)CC[C@H]32)c1

>  <class_label>
false (0)

$$$$
>  <molecule>
C[C@@H]1CN([C@@H](C)CO)C(=O)c2cc(NC(=O)Nc3ccc(C(F)(F)F)cc3)ccc2O[C@@H]1CN(C)C(=O)Nc1ccc2c(c1)OCO2

>  <class_label>
true (1)

$$$$
>  <molecule>
C[C@@H]1CN([C@H](C)CO)C(=O)c2cc(NS(=O)(=O)c3ccc(Cl)cc3)ccc2O[C@@H](C)CCCCO[C@H]1CN(C)S(=O)(=O)c1ccccc1

>  <class_label>
true (1)

$$$$
>  <molecule>
O=C(NC1CC1)c1n[nH]c(=O)c2ccccc12

>  <class_label>
false (0)

$$$$
>  <molecule>
COc1ccc2c3c([nH]c2c1)[C@@H](CO)N(C[C@]13CCN(CC1)Cc1cc(on1)-c1ccccc1)C(=O)Nc1ccc(cc1)F

>  <class_label>
false (0)

$$$$
>  <molecule>
C[C@@H]1CCCCO[C@@H](CN(C)S(=O)(=O)c2ccccc2)[C@H](C)CN([C@@H](C)CO)C(=O)c2cc(NS(=O)(=O)c3ccc(Cl)cc3)ccc2O1

>  <class_label>
false (0)

$$$$
>  <molecule>
C[C@@H]1CCCCO[C@@H](CN(C)S(=O)(=O)c2ccccc2)[C@H](C)CN([C@H](C)CO)C(=O)c2cc(NS(=O)(=O)c3ccc(Cl)cc3)ccc2O1

>  <class_label>
false (0)

$$$$
>  <molecule>
C[C@@H]1CCCCO[C@H](CN(C)S(=O)(=O)c2ccc(Cl)cc2)[C@@H](C)CN([C@H](C)CO)C(=O)c2cc(NS(=O)(=O)c3ccccc3)ccc2O1

>  <class_label>
false (0)

$$$$
>  <molecule>
C[C@@H]1CCCCO[C@H](CN(C)C(=O)CCCN(C)C)[C@@H](C)CN([C@@H](C)CO)C(=O)c2cc(NC(=O)Nc3ccc(F)cc3)ccc2O1

>  <class_label>
false (0)

$$$$
>  <molecule>
COc1ccccc1CNC(=O)C[C@@H]1C[C@@H]2c3cc(NC(=O)NC4CCCC4)ccc3O[C@@H]2[C@@H](CO)O1

>  <class_label>
false (0)

$$$$
>  <molecule>
C[C@@H]1CN([C@@H](C)CO)C(=O)c2cc(NC(=O)Nc3ccc4c(c3)OCO4)ccc2O[C@H]1CN(C)C(=O)Nc1ccc(C(F)(F)F)cc1

>  <class_label>
false (0)

$$$$
>  <molecule>
O=C(Cc1ccccc1)Nc1ccccc1Sc1ccccc1

>  <class_label>
false (0)

$$$$
>  <molecule>
C[C@@H]1CN([C@@H](C)CO)C(=O)c2cc(NS(=O)(=O)c3ccc(Cl)cc3)ccc2O[C@@H](C)CCCCO[C@@H]1CN(C)S(=O)(=O)c1ccccc1

>  <class_label>
true (1)

$$$$
>  <molecule>
C[C@H]1CN([C@@H](C)CO)C(=O)c2cc(NC(=O)Nc3ccc4c(c3)OCO4)ccc2O[C@H]1CN(C)C(=O)Nc1ccc(C(F)(F)F)cc1

>  <class_label>
false (0)

$$$$
>  <molecule>
C[C@H](CO)N1C[C@H](C)[C@@H](CN(C)Cc2ccc(C(=O)Nc3ccccc3N)cc2)OCc2cnnn2CCCC1=O

>  <class_label>
false (0)

$$$$
>  <molecule>
COc1ccc(cc1)CN1CC[C@]2(CC1)CN([C@H](CO)c1[nH]c3cc(ccc3c12)OC)C(=O)Nc1ccc(cc1)F

>  <class_label>
true (1)

$$$$
>  <molecule>
COc1ccc2c3c([nH]c2c1)[C@@H](CO)N(C[C@]13CCN(CC1)C(=O)c1ccccc1F)C(=O)Nc1ccc(cc1)F

>  <class_label>
false (0)

$$$$
